# TARGET OF ASSAY: recombinant HCV NS5B (HCV RNA-dependent RNA polymerase) (Hepatitis C virus genotype 1b, UniProt P26663)
# Sequence (P26663 2420-3010 limits assumed): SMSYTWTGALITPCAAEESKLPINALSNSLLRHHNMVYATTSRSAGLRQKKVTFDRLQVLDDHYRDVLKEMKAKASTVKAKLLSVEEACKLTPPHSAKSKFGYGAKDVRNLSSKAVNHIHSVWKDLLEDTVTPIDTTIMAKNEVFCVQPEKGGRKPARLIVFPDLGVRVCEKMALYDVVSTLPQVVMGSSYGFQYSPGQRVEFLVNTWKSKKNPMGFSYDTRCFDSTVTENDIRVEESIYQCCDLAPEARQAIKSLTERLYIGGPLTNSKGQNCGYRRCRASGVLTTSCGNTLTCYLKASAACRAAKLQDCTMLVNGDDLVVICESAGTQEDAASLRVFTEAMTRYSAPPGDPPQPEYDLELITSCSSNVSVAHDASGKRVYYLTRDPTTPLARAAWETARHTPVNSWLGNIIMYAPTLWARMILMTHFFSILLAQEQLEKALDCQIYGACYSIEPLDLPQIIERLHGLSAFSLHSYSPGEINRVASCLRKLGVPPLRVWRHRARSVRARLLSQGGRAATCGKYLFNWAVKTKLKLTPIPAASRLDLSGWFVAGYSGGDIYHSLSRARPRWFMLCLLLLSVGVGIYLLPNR
# ASSAY COMMENT: biochemical
# COND: related polymerase activity (Example 27 list); read-out: IC50
pIC50: −log10 of the molar value.
Catalogue of pIC50 values
READOUT KIND: pIC50

# CHEMICAL SMILES, OBSERVED RESULT
measured = [
    ("O=C(O)c1sc(-c2ccccc2)cc1N(C(=O)c1ccc(Cl)cc1Cl)C1CC1", "> 5.30"),
    ("C=Cc1cc(C)ccc1C(=O)N(c1cc(-c2ccccc2)sc1C(=O)O)C(C)C", "4.70 to 5.30"),
    ("Cc1cc(Br)ccc1S(=O)(=O)Nc1cc(-c2ccccc2)sc1C(=O)O", "> 5.30"),
    ("Cc1ccccc1S(=O)(=O)Nc1cc(-c2ccc(CO)cc2)sc1C(=O)O", "> 5.30"),
    ("O=C(O)c1sc(-c2ccccc2)cc1NC(=O)N1CCC2(CC1)C(=O)NCN2c1ccccc1", "> 5.30"),
    ("Cc1ccccc1S(=O)(=O)Nc1cc(-c2cn[nH]c2)sc1C(=O)O", "> 5.30"),
    ("CC(C)N(C(=O)c1ccc(F)cc1)c1cc(-c2ccccc2)sc1C(=O)O", "4.70 to 5.30"),
    ("CN(C(=O)Cc1ccc(F)cc1)c1cc(-c2ccccc2)sc1C(=O)O", "> 5.30"),
    ("C=CCN(C(=O)Cc1ccc(C(F)(F)F)cc1)c1cc(-c2ccccc2)sc1C(=O)O", "< 4.70"),
    ("Cc1ccc(C(=O)N(C)c2cc(-c3cccc(Cl)c3)sc2C(=O)O)cc1", "> 5.30"),
    ("Cc1ccc(C)c(S(=O)(=O)Nc2cc(-c3ccc(F)cc3)sc2C(=O)O)c1", "> 5.30"),
    ("Cc1ccc(C(=O)N(C)c2cc(-c3ccccc3)sc2C(=O)O)cc1", "> 5.30"),
    ("Cc1ccccc1S(=O)(=O)Nc1cc(-c2cccc(C#N)c2)sc1C(=O)O", "> 5.30"),
    ("Cc1ccc(C(=O)N(c2cc(-c3ccccc3)sc2C(=O)O)C(C)C)c(O)c1", "4.70 to 5.30"),
    ("Cc1ccccc1S(=O)(=O)Nc1cc(/C=C/c2ccc(Cl)cc2)sc1C(=O)O", "4.70 to 5.30"),
    ("Cc1ccc(-c2cc(NS(=O)(=O)c3ccccc3C)c(C(=O)O)s2)nc1", "> 5.30"),
    ("O=C(O)c1sc(-c2ccccc2)cc1NS(=O)(=O)c1c(F)cc(F)cc1F", "> 5.30"),
]
